- System: HeLa
- experiment summary: Cell cycle arrest in human HeLa cells assessed as accumulation at G2/M phase at 2 times IC50 after 24 hrs by propidium iodide staining-based FACS flow cytometric analysis (reference value: 21.66%)
- Type: functional
Active and inactive are the calls of the source. No cut-off for these calls is given here.
measure name: Activity

{"given smiles": "CCOC(=O)/C(CC(=O)c1cccc2c1C(=O)c1ccccc1C2=O)=N/NC(N)=S", "measure name": "Activity", "result": "Active"}
{"given smiles": "CCOC(=O)/C(CC(=O)c1cccc2c1C(=O)c1ccccc1C2=O)=N\\NC(=S)NC1CCCCC1", "measure name": "Activity", "result": "Active"}
{"given smiles": "CCCCNC(=S)N/N=C(/CC(=O)c1cccc2c1C(=O)c1ccccc1C2=O)C(=O)OCC", "measure name": "Activity", "result": "Active"}
{"given smiles": "CCOC(=O)/C(CC(=O)c1cccc2c1C(=O)c1ccccc1C2=O)=N\\NC(=S)NCc1cccs1", "measure name": "Activity", "result": "3.79%"}
{"given smiles": "CCOC(=O)/C(CC(=O)c1cccc2c1C(=O)c1ccccc1C2=O)=N\\NC(=S)NCc1cccnc1", "measure name": "Activity", "result": "Active"}
{"given smiles": "CCOC(=O)/C(CC(=O)c1cccc2c1C(=O)c1ccccc1C2=O)=N\\NC(=S)Nc1ccc(C)cc1", "measure name": "Activity", "result": "Active"}

Form field Activity for item CCCCCCNC(=S)N/N=C(/CC(=O)c1cccc2c1C(=O)c1ccccc1C2=O)C(=O)OCC on HeLa: 3.84%

Form field Activity for item CCOC(=O)/C(CC(=O)c1cccc2c1C(=O)c1ccccc1C2=O)=N\NC(=S)NCc1ccco1 on HeLa: Active

Form field Activity for item CCOC(=O)/C(CC(=O)c1cccc2c1C(=O)c1ccccc1C2=O)=N\NC(=S)Nc1ccccc1 on HeLa: 7.61%
